Origin of the recorded values: BigSolDB 2.1

- CONDITION: in n-butanol, 318.15 K

>  <SMILES>
CC(=O)c1c(C)c([N+](=O)[O-])c(C(C)(C)C)c([N+](=O)[O-])c1C

>  <solubility (mole fraction)>
0.0141

$$$$

---

- CONDITION: in ethyl acetate, 308.15 K

>  <SMILES>
CC(=O)c1c(C)c([N+](=O)[O-])c(C(C)(C)C)c([N+](=O)[O-])c1C

>  <solubility (mole fraction)>
0.136

$$$$

---

- CONDITION: in acetonitrile, 318.15 K

>  <SMILES>
CC(=O)c1c(C)c([N+](=O)[O-])c(C(C)(C)C)c([N+](=O)[O-])c1C

>  <solubility (mole fraction)>
0.0644

$$$$

---

- CONDITION: in cyclohexane, 283.15 K
EXPERIMENTAL_READOUT: solubility (mole fraction)

>  <SMILES>
CC(=O)c1c(C)c([N+](=O)[O-])c(C(C)(C)C)c([N+](=O)[O-])c1C

>  <OBS_VALUE>
0.00348

$$$$

---

- CONDITION: in n-butanol, 303.15 K
EXPERIMENTAL_READOUT: solubility (mole fraction)

>  <SMILES>
CC(=O)c1c(C)c([N+](=O)[O-])c(C(C)(C)C)c([N+](=O)[O-])c1C

>  <OBS_VALUE>
0.00823

$$$$

---

- CONDITION: in cyclohexane, 308.15 K

>  <SMILES>
CC(=O)c1c(C)c([N+](=O)[O-])c(C(C)(C)C)c([N+](=O)[O-])c1C

>  <solubility (mole fraction)>
0.0104

$$$$

---

- CONDITION: in DMF, 298.15 K

>  <SMILES>
CC(=O)c1c(C)c([N+](=O)[O-])c(C(C)(C)C)c([N+](=O)[O-])c1C

>  <solubility (mole fraction)>
0.131

$$$$

---

- CONDITION: in isopropanol, 318.15 K

>  <SMILES>
CC(=O)c1c(C)c([N+](=O)[O-])c(C(C)(C)C)c([N+](=O)[O-])c1C

>  <solubility (mole fraction)>
0.00982

$$$$

---

- CONDITION: in acetonitrile, 313.15 K
EXPERIMENTAL_READOUT: solubility (mole fraction)

>  <SMILES>
CC(=O)c1c(C)c([N+](=O)[O-])c(C(C)(C)C)c([N+](=O)[O-])c1C

>  <OBS_VALUE>
0.0545

$$$$

---

- CONDITION: in ethanol, 303.15 K

>  <SMILES>
CC(=O)c1c(C)c([N+](=O)[O-])c(C(C)(C)C)c([N+](=O)[O-])c1C

>  <solubility (mole fraction)>
0.00521

$$$$

---

- CONDITION: in ethyl acetate, 293.15 K
EXPERIMENTAL_READOUT: solubility (mole fraction)

>  <SMILES>
CC(=O)c1c(C)c([N+](=O)[O-])c(C(C)(C)C)c([N+](=O)[O-])c1C

>  <OBS_VALUE>
0.0959

$$$$

---

- CONDITION: in acetonitrile, 278.15 K

>  <SMILES>
CC(=O)c1c(C)c([N+](=O)[O-])c(C(C)(C)C)c([N+](=O)[O-])c1C

>  <solubility (mole fraction)>
0.0141

$$$$
